Would you mind telling me the reported Ki of each entry?
Molecular target: CCR2 (Homo sapiens, UniProt P41597)
Construct: Membranes were prepared from THP-1 cells; endogenous in cells
Sequence (P41597 1-360 isoform P41597-2): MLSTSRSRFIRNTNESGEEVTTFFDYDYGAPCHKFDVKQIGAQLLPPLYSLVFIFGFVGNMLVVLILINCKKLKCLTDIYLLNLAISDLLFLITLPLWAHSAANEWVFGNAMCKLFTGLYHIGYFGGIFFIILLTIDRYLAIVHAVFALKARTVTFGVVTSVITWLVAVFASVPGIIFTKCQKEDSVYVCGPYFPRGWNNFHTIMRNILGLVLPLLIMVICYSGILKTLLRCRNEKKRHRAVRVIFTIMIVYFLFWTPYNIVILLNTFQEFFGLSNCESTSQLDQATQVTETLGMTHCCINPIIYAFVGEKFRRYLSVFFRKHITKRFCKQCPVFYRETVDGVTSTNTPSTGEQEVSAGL
Assay: CCR2 receptor membrane binding assay ([125I]MCP-1, THP-1 membranes, SPA beads)
Conditions: dissociation constant hKi; THP-1 cell membranes, [125I]MCP-1, bound radioactivity after 8 h
One number for each entry, in nM.

Worked cases, Ki given:
>  <COMPOUND>
CO[C@H]1COCC[C@H]1NC1CCN(C(=O)c2ncnc(NC[C@@H]3CCC[C@H](c4ccc(OC(F)(F)F)cc4)O3)c2C)CC1 [Example 53c]

>  <RESULT_TYPE>
Ki

>  <READING>
98

$$$$
>  <COMPOUND>
Cc1c(NC[C@H]2CCC[C@@H](c3ccccc3)O2)ncnc1C(=O)N1CCC(N2CCC(N(C)S(C)(=O)=O)CC2)CC1 [Example 11]

>  <RESULT_TYPE>
Ki

>  <READING>
53

$$$$

Give Ki for each of the items listed below.
1. CO[C@H]1COCC[C@H]1NC1CCN(C(=O)c2nc(C)nc(NC[C@H]3CCC[C@@H](c4cccc(C)c4)O3)c2C)CC1 [Example 50]
2. CO[C@H]1COCC[C@H]1NC1CCN(C(=O)c2ncnc(NC[C@@H]3CCC[C@H](c4ccc(C)cc4)O3)c2C)CC1 [Example 31]
3. CO[C@@H]1COCC[C@@H]1NC1CCN(C(=O)c2nc(C)nc(NC[C@H]3CCC[C@@H](c4cccc(C)c4)O3)c2C)CC1 [Example 51]
4. Cc1cccc([C@H]2CCC[C@@H](CNc3ncnc(C(=O)N4CCC(N5CCC(N(C)S(C)(=O)=O)CC5)CC4)c3C)O2)c1 [Example 23]

Reply |
1. 9
2. 276
3. 8
4. 494

Values were extracted from patent US8765949B2.
